Origin of measurements: the supplement of paper PMC9112550

- System: Escherichia coli TOP10;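 further: peptides expressed intracellularly from a pBAD plasmid library in pooled LB shake-flask culture, induced with 0.3% L-arabinose, DNA abundance read by NGS, three biological replicates, DESeq2 with apeglm shrinkage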
- ASSAY INFO: shrunken log2 fold change of peptide-encoding DNA abundance (4.5 h post-induction vs induction); higher = less antimicrobial activity (less host growth inhibition)
- STATED CONDITIONS: time post-induction: 4.5 h; library: site-saturation at positions 5, 18, 19, 20
Entry flag: Yes if shrunken log2 fold change reaches 0.3; No if it does not.

RRIRQRPPRLPRPRPRPPSMPRP ... No
RRIRWRPPRLPRPRPRPYQEPRP ... No
RRIRERPPRLPRPRPRPGFAPRP ... Yes

## Input // inclusive: shrunken log2 fold change at least 0.3? input: RRIRIRPPRLPRPRPRPNKGPRP
## Output No

## Input RRIRLRPPRLPRPRPRPQNWPRP , same question.
## Output No
